Recorded measurements of hERG current change (%, negative = inhibition) at 1uM, one per entry
Molecular target: human ether-à-go-go-related gene (hERG) potassium channel (human)
Sequence (Q12809 whole entry, looked up): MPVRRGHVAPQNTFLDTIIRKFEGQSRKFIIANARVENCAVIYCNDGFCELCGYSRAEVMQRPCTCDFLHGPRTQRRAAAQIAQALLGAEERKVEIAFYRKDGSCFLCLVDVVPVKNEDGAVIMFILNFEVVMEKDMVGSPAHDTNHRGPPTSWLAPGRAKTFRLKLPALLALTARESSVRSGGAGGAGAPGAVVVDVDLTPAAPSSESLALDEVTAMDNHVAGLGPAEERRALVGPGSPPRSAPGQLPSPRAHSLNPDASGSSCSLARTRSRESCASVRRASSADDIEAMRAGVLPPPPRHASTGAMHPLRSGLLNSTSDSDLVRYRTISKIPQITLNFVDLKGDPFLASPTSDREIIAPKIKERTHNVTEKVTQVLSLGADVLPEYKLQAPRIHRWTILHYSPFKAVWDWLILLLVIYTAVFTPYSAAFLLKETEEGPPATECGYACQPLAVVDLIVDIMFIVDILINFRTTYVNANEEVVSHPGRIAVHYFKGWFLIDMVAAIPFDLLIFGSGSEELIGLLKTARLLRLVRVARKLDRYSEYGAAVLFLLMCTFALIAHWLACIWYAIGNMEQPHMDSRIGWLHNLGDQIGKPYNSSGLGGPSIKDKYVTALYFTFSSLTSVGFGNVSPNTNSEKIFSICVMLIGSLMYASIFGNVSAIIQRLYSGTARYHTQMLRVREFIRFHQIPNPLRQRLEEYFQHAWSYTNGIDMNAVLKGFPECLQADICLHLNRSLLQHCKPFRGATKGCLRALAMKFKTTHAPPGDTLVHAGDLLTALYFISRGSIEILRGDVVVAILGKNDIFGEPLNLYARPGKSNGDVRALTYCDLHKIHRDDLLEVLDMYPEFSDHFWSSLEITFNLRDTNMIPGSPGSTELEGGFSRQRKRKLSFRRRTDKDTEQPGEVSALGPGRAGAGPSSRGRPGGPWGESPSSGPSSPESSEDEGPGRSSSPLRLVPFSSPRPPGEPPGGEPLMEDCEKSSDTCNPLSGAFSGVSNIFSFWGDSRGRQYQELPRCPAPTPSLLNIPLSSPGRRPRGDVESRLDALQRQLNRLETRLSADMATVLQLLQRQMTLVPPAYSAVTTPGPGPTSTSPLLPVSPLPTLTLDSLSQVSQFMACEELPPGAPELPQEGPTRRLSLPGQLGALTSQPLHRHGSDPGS
Experiment: primary screen, population patch clamp on CHO cells stably expressing hERG; higher = less effect of the substance
Hit rate of the full screen: of about 310,000 compounds, about 2,200 (0.71%) showed an effect of 50% or more. Effects have a minus sign here. This is one part of a sample in which strong results are shown more often than they occur.
Measured attribute: hERG current change (%, negative = inhibition) at 1uM (%)

Molecule	Reported
CC(C)Cc1cc(CN2CCC(CO)(Cc3ccccc3)CC2)[nH]n1	-42.9
COc1ccc(CN2CCN(C(C)C)C(CCO)C2)cc1Cn1cccn1 (stereo not shown)	12
O=C1CC(N2CCN(C3CCc4ccccc4C3)CC2)C(=O)N1c1ccccc1 (stereo not shown)	-42.7
O=C(COC(=O)C1CCN(C(=O)c2ccc(Cl)cc2)CC1)Nc1ccccc1F	-11.5
CSc1cccc(CN2CCC(CO)(Cc3cccc(C(F)(F)F)c3)CC2)c1	-35.9
O=S1(=O)CCC(NC(=S)Nc2ccc3ccccc3c2)C1 (stereo not shown)	11.6
CC1(C)CC(=O)C2=C(C1)NC(=S)C(C#N)C21CCCCC1 (stereo not shown)	10.1
OC(COc1ccccc1)Cn1c2ccccc2c2ccccc21 (stereo not shown)	8.25
COc1ccc(CC2(CO)CCN(Cc3cnn(C)c3C)CC2)cc1	6.81
CC(C)Cc1cc(CN2CCCC(CO)(Cc3cccc(Cl)c3)C2)[nH]n1 (stereo not shown)	-14.7
CN1CCN(c2ccc([N+](=O)[O-])cc2NC(=O)c2ccco2)CC1	-22.4
COc1ccc(CN2CCC(CO)(Cc3ccccc3)CC2)cc1Cn1cccn1	-55.9
COc1ccc(OCC(O)Cn2c(=N)n(Cc3ccccc3)c3ccccc32)cc1.Cl (stereo not shown)	-76.6
Cc1ccc(Cn2c(=N)n(CC(O)COc3ccccc3)c3ccccc32)cc1.Cl (stereo not shown)	-36.1
Cc1ccc(OCC(O)Cn2c(=N)n(Cc3ccccc3)c3ccccc32)cc1.Cl (stereo not shown)	-61
Cc1cccc(OCC(O)Cn2c(=N)n(Cc3ccccc3)c3ccccc32)c1.Cl (stereo not shown)	-16.4
COc1ccc(N2C(=O)CC(N3CCN(C4CCc5ccccc5C4)CC3)C2=O)cc1 (stereo not shown)	-37.7
COc1ccccc1NC(=O)CSc1nnc(C2CCCCC2)n1-c1ccccc1	2.23
Cc1ccc(N2C(=O)CC(N3CCN(C4CCc5ccccc5C4)CC3)C2=O)cc1 (stereo not shown)	-59

Origin of measurements: paper PMC4336329
